Each entry below lists one item and its recorded melting point value.

{"columns": ["compound", "endpoint-label", "experimental-value"],
 "data": [
  ["N#CCc1cccc(Cc2nc3c(F)c(F)cc(F)c3s2)c1Cl", "melting point", "148 to 151 °C"],
  ["CC1COc2cc(NC(=O)OCc3ccccc3)ccc2N1C(=O)OCc1ccccc1 (stereo not given)", "melting point", "104 to 106 °C"],
  ["CCc1nn(-c2cc(NC(C)=O)ccc2Cl)c(=O)n1Cc1ccc(-c2ccccc2S(=O)(=O)NC(=O)OC(C)(C)C)cc1F", "melting point", "158 to 160 °C"],
  ["CC1=NN=C(c2ccc(NC=O)cc2)c2cc3c(cc2C1)OCO3", "melting point", "152 to 154 °C"],
  ["O=S(=O)(NC(CO)(CO)CO)c1cncc(C#Cc2cnn3c(C(F)(F)F)cc(-c4ccc(C(F)(F)F)cc4)nc23)c1", "melting point", "230 to 232 °C"],
  ["Clc1ccc(-c2cc3nc(N4CCOCC4)c4ccccc4c3nn2)cc1", "melting point", "244 to 246 °C"],
  ["Cc1ccccc1C(=O)Nc1ccc(C(=O)N2CCCC(N(C)S(C)(=O)=O)c3ccccc32)cc1 (stereo not given)", "melting point", "197 to 198 °C"],
  ["Cc1cccc(C)c1NC(=O)N(Cc1ccccc1)CC(c1ccccc1)c1ccccc1", "melting point", "205 to 208 °C"]
]}

Data request: For the compound CCC(C)NC(=O)c1nc2cnn(CC)c2nc1-c1ccccc1 (stereo not given) , give its measured melting point value.
Data returned: 150 to 151 °C

Data request: Please give measured melting point of the following entry: "CCC(CC)COC(=O)c1ccc(N)cc1"
Data returned: 52 to 53 °C

Data request: Provide melting point value for the following compound: "CP(C)(=O)COC(=O)c1ccccc1Nc1ccnc2c(C(F)(F)F)cccc12"
Data returned: 176 °C

Data request: Answer with the recorded melting point for the compound listed here: "C(=N\c1c(-c2ccccc2)cc(-c2ccccc2)cc1-c1ccccc1)/c1ccccn1"
Data returned: 141 to 144 °C

* * *

Recorded melting point values for a group of compounds are listed next.

The examples below pair each entry with its known result.
{"columns": ["compound", "melting point"],
 "data": [
  ["CNC(=O)c1cc2nc(C(F)(F)F)ccc2c(C)c1NC(=O)c1cc(C(F)(F)F)nn1-c1ncccc1Cl", "227 to 230 °C"],
  ["COc1cc2c(c(Cl)c1Cl)C(=O)C(c1ccccc1)C2 (stereo not given)", "187 to 192 °C"],
  ["COc1ccc(S(=O)(=O)N2CCc3cccc(-c4cccs4)c32)cc1", "128 to 129 °C"],
  ["COC(C#N)c1ccc2ccccc2c1 (stereo not given)", "47 to 48 °C"]
]}

Attention now turns to another entry.
Data request: // Input: "CSC1NC(=O)N(Cc2ccco2)C(=O)N1" . Output its melting point only.
Data returned: 209 to 211 °C

* * *

Quick list: melting point per entry.

{"columns": ["compound", "endpoint-label", "experimental-value"],
 "data": [
  ["CCCCC1(CC(=O)N(CC)CC)C(=O)N(c2ccccc2)N(c2ccccc2)C1=O", "melting point", "80.5 to 82 °C"],
  ["COc1cc(OC)c(-c2cc3ccccc3n2C(=O)OC(C)(C)C)cc1/C=C/C(=O)c1ccc(C(=O)O)cc1", "melting point", "182 to 183 °C"],
  ["CCCOCCN(C)c1ccc(-c2ccc3c(c2)C=C(C(=O)Nc2ccc(CN(C)C4CCOCC4)cc2)CCS3(=O)=O)cc1", "melting point", "193 to 194 °C"],
  ["COC1=CC(OC)(OC)CC=C1C(=O)OCC(=O)c1ccccc1", "melting point", "97 to 98 °C"]
]}

Data request: Write down melting point measured for item O=C1Nc2cc(F)ccc2C1c1ncnc2nn(C3CCCCC3)cc12 (stereo not given)
Data returned: 297 to 300 °C
